- Tested on: SNU-5
- test details: Cell proliferation assay (CellTiter-Glo, 72 hours)
- Type: cell-based
- study conditions: Homo sapiens, read-out: IC50 anti-proliferative
measured endpoint: IC50

[
  {
    "compound": "Cc1c(C(=O)Nc2ccc(Oc3ccnc4cc(OCC(C)(C)O)ccc34)c(F)c2)c(=O)n(-c2ccccc2)n1C [CT053]",
    "measured endpoint": "IC50",
    "result": "0.06 µM"
  }
]

* * *

- test details: Phase I trial: clinical pharmacokinetics in plasma
- Assay type: in vivo, human
- study conditions: human, plasma, oral, 60 mg, Multiple doses day 28, 60 mg, n=3, Geometric Mean (CV%); read-out: Vz/F
measured endpoint: Vd/F (L)

[
  {
    "compound structure string": "Cc1c(C(=O)Nc2ccc(Oc3ccnc4cc(OCC(C)(C)O)ccc34)c(F)c2)c(=O)n(-c2ccccc2)n1C",
    "measured endpoint": "Vd/F",
    "quantitative result": 60.5
  }
]
